Numbers sourced from patent US12371454B2.

Attribute: pIC50
test-system: Kras and SOS1 (biotin-tagged human Kras loaded with GDP, His-tagged human SOS1) (Homo sapiens, UniProt P01116, G12D)
Construct: made in house; host or cells: E. coli (stated for Kras only)
Sequence (P01116 1-188 isoform P01116-2 G12D): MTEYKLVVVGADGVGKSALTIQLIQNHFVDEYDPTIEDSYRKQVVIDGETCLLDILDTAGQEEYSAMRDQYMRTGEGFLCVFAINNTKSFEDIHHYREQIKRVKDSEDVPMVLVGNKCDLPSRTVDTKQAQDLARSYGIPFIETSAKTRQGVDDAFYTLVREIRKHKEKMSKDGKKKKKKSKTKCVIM
assay: Protein-protein interaction inhibition between Kras and SOS1 (KrasGl2D-SOS PPI) using AlphaScreen
Type: binding
applied-conditions: AlphaScreen; biotin-tagged human Kras loaded with GDP, His-tagged human SOS1; read-out: KRAS G12D-SOS PPI IC50
pIC50: −log10 of the molar value. Starred links: 1 amine or outer side, 2 acyl side, 3 side chain; linkers in the order of their positions; H or OH if unused. Positions of bridges follow the written chain, without caps; N, C: chain ends. Non-standard residues stand in square brackets, D forms with d. Residues, ends and D or L forms follow the SMILES beside them. *: point of attachment. hPhe(3,5-F2-4-CF3) = N[C@@H](CCc1cc(F)c(C(F)(F)F)c(F)c1)C(=O)O; hPhe(3-Cl-4-CF3) = N[C@@H](CCc1ccc(C(F)(F)F)c(Cl)c1)C(=O)O; NMePhe(4-CF3) = CN[C@@H](Cc1ccc(C(F)(F)F)cc1)C(=O)O; NMeAbu(4,4,4-F3) = CN[C@@H](CC(F)(F)F)C(=O)O; NMedβ3hAla = C[C@H](CC(=O)[*:2])N(C)[*:1]; Pro(4,4-F2) = O=C(O)[C@@H]1CC(F)(F)CN1; NMeCha = CN[C@@H](CC1CCCCC1)C(=O)O; X2 = C=CC[C@](C)(N[*:1])C(=O)[*:2]; NMeChg = CN[C@H](C(=O)O)C1CCCCC1; NMeD = CN[C@@H](CC(=O)O)C(=O)O; NMeL = CN[C@@H](CC(C)C)C(=O)O; NMeV = CN[C@H](C(=O)O)C(C)C; Morpholide = C1CN(*)CCO1; Ac5c = NC1(C(=O)O)CCCC1; Sar = CNCC(=O)O
assay-endpoint: pIC50

compound: C=CC[C@]1(C)NC(=O)[C@@H]2CCCN2C(=O)[C@H](CCc2ccc(C(F)(F)F)c(Cl)c2)NC(=O)CN(C)C(=O)[C@H](CC2CCCCC2)N(C)C(=O)CN(C)C(=O)CN(C)C(=O)[C@H]([C@@H](C)CC)NC(=O)[C@H](CC(C)C)N(C)C(=O)C[C@@H](C)N(C)C(=O)[C@H](C(C)C)N(C)C1=O [Compound 644] (cyclo(I[Sar][Sar][NMeCha][Sar][hPhe(3-Cl-4-CF3)]P[X2][NMeV][NMedβ3hAla][NMeL]))
reported-value: 7.77

compound: CC[C@H](C)[C@@H]1NC(=O)[C@H](CC(F)(F)F)N(C)C(=O)C[C@@H](C(=O)N2CCOCC2)N(C)C(=O)[C@H](C2CCCCC2)N(C)C(=O)C2(CCCC2)NC(=O)[C@@H]2CC(F)(F)CN2C(=O)[C@H](CCc2cc(F)c(C(F)(F)F)c(F)c2)NC(=O)CN(C)C(=O)[C@H](Cc2ccc(C(F)(F)F)cc2)N(C)C(=O)CN(C)C(=O)CN(C)C1=O [Compound 1260] ([NMeAbu(4,4,4-F3)]I[Sar][Sar][NMePhe(4-CF3)][Sar][hPhe(3,5-F2-4-CF3)][Pro(4,4-F2)][Ac5c][NMeChg][NMeD]-Morpholide; lactam N-11)
reported-value: 9.27
